Experiment: inhibitors of E-selectin induction by TNFa, primary screen, imaging, HUVEC, immunofluorescence, MLSMR starter and 10KST1 sets (AID 487);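 further: signal is fraction of cell area covered by stained E-selectin grains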
Conditions: HUVEC TNFalpha-induced E-selectin immunofluorescence imaging, at 2 µM; hits give high values
So basically: inhibition at -60% or higher? That is Satisfied. Lower than -60%? That is Not satisfied.

A selection of reference data follows.
{"columns": ["molecule", "label-class"],
 "data": [
  ["CNS(=O)(=O)c1cccc2nsnc12", "Not satisfied"],
  ["Cc1csc(NC(=O)CSc2nsc(SCC(=O)Nc3nc(C)cs3)c2C#N)n1", "Satisfied"],
  ["CCCCNC(=O)N1CCOCCOCCN(C(=O)NCCCC)CCOCCOCC1", "Not satisfied"],
  ["N#Cc1c(N)sc(=S)c2c1CCCCC2", "Not satisfied"],
  ["O=C(c1ccc(=O)oc1)N1CCN(c2ccc(F)cc2)CC1", "Satisfied"],
  ["CC(C)(C)c1ccc(C(=O)C=[N+]=[N-])cc1", "Not satisfied"]
]}

Please look at the following molecule next.
Task: Does inhibition meet or surpass -60% for `CCOC(=O)CC1=NC(=O)CS1` ?
Result: Satisfied

---

Target: Alpha-2C adrenergic receptor (Homo sapiens) (UniProt P18825)
Sequence (P18825 whole entry, looked up): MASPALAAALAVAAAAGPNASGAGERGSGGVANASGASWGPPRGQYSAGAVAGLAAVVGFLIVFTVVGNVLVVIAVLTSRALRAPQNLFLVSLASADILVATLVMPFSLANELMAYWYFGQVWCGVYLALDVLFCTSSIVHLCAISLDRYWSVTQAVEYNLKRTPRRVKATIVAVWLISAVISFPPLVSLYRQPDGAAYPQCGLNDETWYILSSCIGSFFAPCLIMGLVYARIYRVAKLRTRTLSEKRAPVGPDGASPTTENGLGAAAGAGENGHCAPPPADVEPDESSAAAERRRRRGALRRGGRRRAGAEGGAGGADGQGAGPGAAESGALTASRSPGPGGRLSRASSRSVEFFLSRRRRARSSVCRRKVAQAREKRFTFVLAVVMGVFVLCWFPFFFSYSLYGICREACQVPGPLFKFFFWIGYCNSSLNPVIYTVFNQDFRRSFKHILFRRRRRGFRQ
Test: modulators of alpha2C/GIRK thallium flux, primary screen, cell-based, HEK293 alpha2C/GIRK1/2 (AID 624);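 further: slope of fluorescence ratio to pre-addition baseline per second over 15 to 24 s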
Conditions: thallium flux BTC fluorescence, at 10 µM, actives lie on both sides
assay-metric: slope
Reply briefly: the number, and no unit.

{"columns": ["molecule", "slope"],
 "data": [
  ["CC(Sc1nc(N2CCCCC2)c2c(c1C#N)CCCC2)C(=O)O (centres undefined)", 0.00467],
  ["N#CC1(P(=O)(c2ccccc2)c2ccccc2)CC1", 0.00538],
  ["c1csc(Cc2nn3c(-c4ccncc4)nnc3s2)c1", 0.00514],
  ["CCCN(CCC)C(=O)C(CCC(=O)O)NC(=O)c1ccccc1 (centres undefined)", 0.00459],
  ["C=CCc1cccc(/C=N/c2ncn[nH]2)c1O", 0.00453],
  ["COCc1[nH]nc2c1C(c1ccnc3ccccc13)C(C#N)=C(N)O2 (centres undefined)", 0.00587],
  ["O=C(O)/C=C/c1ccc(O)c(O)c1", 0.00437],
  ["CN1CCC(=C2c3ccccc3CC(=O)c3sccc32)CC1", 0.00525],
  ["CCOC(=O)C(CC(=O)O)N1CCCCC1 (centres undefined)", 0.00418],
  ["Cc1ccccc1N1C(=O)C2ON(c3ccccc3)C(c3ccncc3)C2C1=O (centres undefined)", 0.00538]
]}

Task: Field request: slope | item: COc1cc(C2C(C#N)=C(N)Oc3cc(C)n(Cc4ccccn4)c(=O)c32)cc2c1OCO2 (centres undefined)
Result: 0.00753

Task: slope lookup needed for CCC(C)n1ncn(-c2ccc(N3CCN(c4ccc(OCC5COC(Cn6cncn6)(c6ccc(Cl)cc6Cl)O5)cc4)CC3)cc2)c1=O (centres undefined) , thanks.
Result: 0.00423

Task: Field request: slope | item: O=C(O)c1cc2n(n1)C(C(F)(F)F)CC(c1ccccc1)N2 (centres undefined)
Result: 0.00535

Task: Endpoint output: slope of `Nc1nc(Cl)nc2c1ncn2[C@@H]1O[C@H](CO)[C@@H](O)[C@H]1O` . Value?
Result: 0.00614

Task: Field request: slope | item: `Cc1onc(-c2ccccc2)c1C(=O)N[C@@H]1C(=O)N2[C@@H]1SC(C)(C)[C@@H]2C(=O)O`
Result: 0.00473

Task: # lookup: slope of COc1ccc(C2CC(=O)c3sc(N)nc3C2)cc1 (centres undefined)
Result: 0.00734

Task: So what does the record say about slope for `Cn1ncc(N=Cc2ccccc2)c1C(N)=O` ?
Result: 0.00589

Task: Which value of slope has been reported for `CNCCCC1c2ccccc2C=Cc2ccccc21` in the records?
Result: 0.00425

Task: Give its slope value. Item: `CSc1nc(C)cc(OCCNS(=O)(=O)c2cc(C)ccc2C)n1`
Result: 0.00593

Task: If you can, please state the reported slope value of O=C1C2CC=C(Cl)CC2C(=O)N1CNc1ccccn1 (centres undefined) .
Result: 0.00475

Task: Value lookup for slope; key = CCN(CC)CCCC1(CN)OCCc2ccccc21 (centres undefined)
Result: 0.00288
